target of assay: IAPP (Homo sapiens, UniProt P10997)
Construct: which is a 37 amino acid peptide, derived from a larger precursor peptide, called pro-IAPP
Sequence (P10997 34-70 limits assumed): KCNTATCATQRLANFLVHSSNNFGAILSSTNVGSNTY
assay protocol: Electrospray MS assay for binding to IAPP
Parameters: key: 0 = None
run parameters: 100 μM compound, 20 μM IAPP, pH 7.4, aqueous solution
Source text: The ability of a therapeutic compound of the invention to inhibit an interaction between an amyloidogenic protein and a glycoprotein or proteoglycan constituent of a basement membrane can be assessed by an in vitro binding assay, such as that described in U.S. Pat. No. 5,164,295, the contents of which are hereby incorporated by reference. […] The protocol can readily be modified to adjust the sensitivity of the data, e.g., by adjusting the amount of protein and/or compound employed. […]
Let's look at some compounds and their measured MS Results (IAPP binding), Water.
readout name: MS Results (IAPP binding), Water

>>> df
                                   compound  measured_value
0  N[C@@H](Cc1cccc(CS(=O)(=O)c2nc3ccccc3[nH]2)n1)C(=O)O [drawing 514]               0
1  N[C@@H](Cc1cccc(CSc2nccc(O)n2)c1)C(=O)O [drawing 517]               0
2  N[C@@H](Cc1cccc(CSc2nc3ccccc3[nH]2)n1)C(=O)O [drawing 512]               0

###

target of assay: L1 transport system (large neutral amino acid carrier, L1-system carrier) (Rattus norvegicus, UniProt Q63016)
Construct: functionality of their endogenous transporters such as the L1-system carrier; endogenous in cells; host or cells: rat primary cerebrovascular (brain microcapillary) endothelial cells, RBEC
Sequence (Q63016 whole entry): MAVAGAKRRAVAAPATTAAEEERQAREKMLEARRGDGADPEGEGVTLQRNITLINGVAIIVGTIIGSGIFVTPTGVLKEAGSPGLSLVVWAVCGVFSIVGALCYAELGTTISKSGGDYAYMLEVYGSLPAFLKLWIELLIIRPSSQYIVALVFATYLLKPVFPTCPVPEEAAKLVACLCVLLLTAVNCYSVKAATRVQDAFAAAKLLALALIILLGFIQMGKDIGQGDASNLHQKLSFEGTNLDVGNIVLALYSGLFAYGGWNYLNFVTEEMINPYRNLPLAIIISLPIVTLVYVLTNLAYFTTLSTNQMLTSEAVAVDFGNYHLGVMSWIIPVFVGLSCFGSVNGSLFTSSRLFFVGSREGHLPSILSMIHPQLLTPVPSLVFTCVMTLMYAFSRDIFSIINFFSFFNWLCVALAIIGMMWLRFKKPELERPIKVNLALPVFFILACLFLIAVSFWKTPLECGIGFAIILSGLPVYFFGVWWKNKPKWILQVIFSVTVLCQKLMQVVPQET
Sequence (Q794F9 whole entry partner): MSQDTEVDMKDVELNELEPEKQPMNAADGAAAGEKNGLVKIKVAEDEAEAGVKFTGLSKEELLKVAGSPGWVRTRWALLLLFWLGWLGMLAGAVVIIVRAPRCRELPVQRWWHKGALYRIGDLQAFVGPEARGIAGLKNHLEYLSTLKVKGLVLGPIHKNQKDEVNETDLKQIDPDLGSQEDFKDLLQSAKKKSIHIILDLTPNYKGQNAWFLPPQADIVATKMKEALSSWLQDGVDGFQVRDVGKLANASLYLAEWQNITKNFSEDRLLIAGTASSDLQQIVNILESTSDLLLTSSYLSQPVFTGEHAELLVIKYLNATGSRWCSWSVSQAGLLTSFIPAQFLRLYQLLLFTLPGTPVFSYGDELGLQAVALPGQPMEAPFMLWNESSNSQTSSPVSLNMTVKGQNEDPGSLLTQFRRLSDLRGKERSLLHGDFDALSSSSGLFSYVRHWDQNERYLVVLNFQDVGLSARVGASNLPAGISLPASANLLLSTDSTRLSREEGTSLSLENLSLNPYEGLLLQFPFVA
assay protocol: Competitive binding assay to the brain L1 transport system (L-[U-14C]phenylalanine on rat primary cerebrovascular endothelial cells)
run parameters: 10^−5 M
readout name: Comparison with the Binding of Phenylalanine

                                   compound          measured_value
0  NC(Cc1cccc(CSc2nnnn2-c2ccccc2)c1)C(=O)O (stereo not shown)       3 (X > 20 Rank 3)
1  NC(Cc1cccc(-c2cccc(Sc3nc(-c4ccccc4)c(-c4ccccc4)[nH]3)c2)c1)C(=O)O (stereo not shown)   1 (0 < X < 10 Rank 1)
2  N[C@@H](Cc1ccccc1)C(=O)NC(Cc1cccc(CSc2nnnn2-c2ccccc2)c1)C(=O)O (stereo partly shown)  2 (10 < X < 20 Rank 2)
3  COc1ccc2[nH]c(SCc3cccc(CC(N)C(=O)O)c3)nc2c1 (stereo not shown)       3 (X > 20 Rank 3)

###

Let's look at some compounds and their measured Comparison with the Binding of Phenylalanine.
target of assay: L1 transport system (large neutral amino acid carrier, L1-system carrier) (Rattus norvegicus, UniProt Q63016)
Construct: functionality of their endogenous transporters such as the L1-system carrier; endogenous in cells; host or cells: rat primary cerebrovascular (brain microcapillary) endothelial cells, RBEC
assay protocol: Competitive binding assay to the brain L1 transport system (L-[U-14C]phenylalanine on rat primary cerebrovascular endothelial cells)
run parameters: 10^−4 M
readout name: Comparison with the Binding of Phenylalanine

>>> df
                                    compound          measured_value
 0  O=C(O)C(Cc1cccc(CSc2nnc[nH]2)n1)NS(=O)(=O)c1ccc(F)cc1 (stereo not drawn) [Compound 66]  2 (10 < X < 20 Rank 2)
 1  Cc1nc(SCc2ccc(-c3ccc(CC(N)C(=O)O)cc3)cc2)sc1CC(=O)O (stereo not drawn) [Compound 122]        0 (X < 0 Rank 0)
 2  NC(Cc1ccc(-c2ccc(CSc3ccnc4cc(C(F)(F)F)ccc34)cc2)cc1)C(=O)O (stereo not drawn) [Compound 47]        0 (X < 0 Rank 0)
 3  NC(Cc1ccc(-c2ccc(CSc3nnnn3CC(=O)O)cc2)cc1)C(=O)O (stereo not drawn) [Compound 153]        0 (X < 0 Rank 0)
 4  Cn1cnnc1SCc1cccc(CC(N)C(=O)O)n1 (stereo not drawn) [Compound 156]   1 (0 < X < 10 Rank 1)
 5  NC(Cc1ccc(-c2ccc(CSc3nc4cc([N+](=O)[O-])ccc4[nH]3)cc2)cc1)C(=O)O (stereo not drawn) [Compound 124]        0 (X < 0 Rank 0)
 6  NC(Cc1cccc(CSc2nccc(O)n2)c1)C(=O)O (stereo not drawn) [Compound 16]        0 (X < 0 Rank 0)
 7  NC(=O)C(N)Cc1cccc(CSc2nccc(N)n2)n1 (stereo not drawn) [Compound 39]        0 (X < 0 Rank 0)
 8  NC(Cc1cccc(CSc2nnc[nH]2)n1)C(=O)O (stereo not drawn) [Compound 35]        0 (X < 0 Rank 0)
 9  NC(Cc1cccc(CSc2nc3ccccc3[nH]2)n1)C(=O)O (stereo not drawn) [Compound 27]       3 (X > 20 Rank 3)
10  O=C(Nc1ccc(-c2ccccc2)cc1)NC(Cc1cccc(CSc2cncc3c(C(F)(F)F)cccc23)n1)C(=O)O (stereo not drawn) [Compound 61]  2 (10 < X < 20 Rank 2)
11  COc1ccc2[nH]c(SCc3cccc(CC(N)C(=O)O)c3)nc2c1 (stereo not drawn) [Compound 135]  2 (10 < X < 20 Rank 2)
12  N[C@@H](Cc1ccccc1)C(=O)NC(Cc1cccc(CSc2ncc[nH]2)c1)C(=O)O (stereo partly drawn) [Compound 7]        0 (X < 0 Rank 0)
13  NC(Cc1cccc(-c2cccc(N3CCN(c4cccc(Cl)c4)CC3)c2)c1)C(=O)O (stereo not drawn) [Compound 101]  2 (10 < X < 20 Rank 2)
14  Cc1ccnc(SCc2ccc(-c3ccc(CC(N)C(=O)O)cc3)cc2)n1 (stereo not drawn) [Compound 151]        0 (X < 0 Rank 0)
15  NC(Cc1ccc(-c2ccc(CN3CCN(c4ccc(F)cc4)CC3)cc2)cc1)C(=O)O (stereo not drawn) [Compound 120]        0 (X < 0 Rank 0)
16  NC(Cc1cccc(CSc2nc3cc([N+](=O)[O-])ccc3[nH]2)c1)C(=O)O (stereo not drawn) [Compound 79]  2 (10 < X < 20 Rank 2)
17  NC(Cc1cccc(CN2CC=CCC2)n1)C(=O)O (stereo not drawn) [Compound 160]        0 (X < 0 Rank 0)
